Tested on: SUP-B15
assay.summary: Antiproliferative activity against human SUP-B15 cells after 72 hrs by CelTiter-Glo assay
Format: functional, cell-based
recorded.conditions: SUP-B15, 72 h
measured.parameter: EC50 (µM)
Give just the number in µM; leave the unit off.

Known results for compounds:
>  <mol>
COC(=O)c1cc(=O)c2c(OC)cc(OC)cc2[nH]1

>  <measured.target>
SUP-B15

>  <measured.parameter>
EC50

>  <reported>
16.1

$$$$
>  <mol>
COC(=O)c1cc(=O)c2cc([N+](=O)[O-])ccc2[nH]1

>  <measured.target>
SUP-B15

>  <measured.parameter>
EC50

>  <reported>
76.5

$$$$
>  <mol>
COc1ccc(-c2c(Cl)c(=O)c3c(OC)cc(OC)cc3n2S(=O)(=O)c2ccc(OC)cc2)cc1

>  <measured.target>
SUP-B15

>  <measured.parameter>
EC50

>  <reported>
17.9

$$$$

Query :: What value of EC50 has been reported for the following compound? `C=CCNC(=O)n1c(-c2ccc(OC)cc2)cc(=O)c2c(OC)cc(OC)cc21`
Result :: 16

Query :: What does the data say about its EC50? Entry: `COc1ccc(-c2cc(=O)c3c(OC)cc(OC)cc3n2S(=O)(=O)c2c(C(C)C)cc(C(C)C)cc2C(C)C)cc1`
Result :: 43.3

Query :: Requested field: EC50. Item: `COC(=O)c1cc(=O)c2cc(NC(=O)Nc3ccc(C(F)(F)F)cc3)ccc2[nH]1`
Result :: 3.27

Query :: // EC50 lookup, key: `COC(=O)c1cc(=O)c2c(OC)cc(OC)cc2n1S(=O)(=O)c1ccc(C)cc1`
Result :: 9.7

Query :: Param item = `Nc1ccc2nc(C(=O)O)cc(O)c2c1` ; retrieve measured EC50.
Result :: 46

* * *

Tested on: HepG2
assay.summary: Antiproliferative activity against human HepG2 cells after 72 hrs by CelTiter-Glo assay
Format: functional, cell-based
recorded.conditions: HepG2, 72 h
Measured EC50 values are reported for all entries that follow.

Recorded EC50, per entry:
>  <molecule>
COc1cc(OC)c2c(=O)cc(C(=O)Nc3cccc(-n4ccnc4)c3)[nH]c2c1

>  <EC50>
> 16.4 µM

$$$$
>  <molecule>
COc1ccc(-c2cc(=O)c3c(OC)cc(OC)cc3n2S(=O)(=O)Cc2ccccc2)cc1

>  <EC50>
> 34.5 µM

$$$$
>  <molecule>
CN(C)C(=O)c1cc2cnc(Nc3ccc(N4CCNCC4)cn3)nc2n1C1CCCC1 [RIBOCICLIB]

>  <EC50>
0.286 µM

$$$$
>  <molecule>
COC(=O)c1cc(=O)c2cc([N+](=O)[O-])ccc2[nH]1

>  <EC50>
> 41.6 µM

$$$$
>  <molecule>
C=CCNC(=O)n1c(-c2ccc(OC)cc2)cc(=O)c2c(OC)cc(OC)cc21

>  <EC50>
> 20 µM

$$$$

Query :: Which measured EC50 value corresponds to O=c1cc(-c2ccccc2)oc2cc(O)c(O)c(O)c12 [BAICALEIN] ?
Result :: 60 µM

Query :: Given the molecule `COC(=O)c1cc(=O)c2c(OC)cc(OC)cc2n1C` , what is its reported EC50?
Result :: > 19 µM

Query :: Which measured EC50 value corresponds to `COC(=O)c1cc(=O)c2cc(NC(=O)Nc3ccc4c(c3)OCCO4)ccc2[nH]1` ?
Result :: > 13.3 µM

Query :: // returns reported EC50 for input O=c1c(-c2ccc(O)cc2)coc2cc(O)cc(O)c12 [GENISTEIN]
Result :: 67.7 µM

Query :: Look up EC50: `COC(=O)c1cc(=O)c2cc(NC(=O)Nc3cc(F)cc(C(F)(F)F)c3)ccc2[nH]1`
Result :: > 20.2 µM

Query :: # EC50 lookup, item `COc1cc(OC)c2c(=O)cc(C(=O)Nc3ccc(N4CCN(C)CC4)cc3)[nH]c2c1`
Result :: > 19.8 µM

Query :: What value of EC50 has been reported for the following molecule? `COC(=O)c1cc(=O)c2cc(NC(=O)Nc3ccc4c(c3)CCC4)ccc2[nH]1`
Result :: > 24.1 µM

Query :: Need EC50 of `COc1ccc(-c2cc(=O)c3c(OC)cc(OC)cc3n2S(=O)(=O)c2cc(F)c(F)c(F)c2)cc1` , thanks.
Result :: > 65.5 µM
